Tested on: Quadruplex DNA
TEST SUMMARY: Binding affinity to 5'-Dabcyl/3'-FM labeled c-myc G-quadruplex DNA (unknown origin) assessed as change in melting temperature at 20 uM by fluorescence assay
Assay type: nucleic-acid assay
Classify: 1 (yes) when ΔTm is strictly less than 0.6 °C; 0 (no) when ΔTm is not.

Worked set:
INSERT INTO results (compound, category_label) VALUES
  ('CCn1cc(C(NC(=O)CCCN)c2ccc(F)cc2)c2ccncc21 (stereo unspecified)', '1 (yes)'),
  ('Cc1ccc(COc2ccc(CNCC3CCNCC3)cc2)cc1', '0 (no)'),
  ('CC(C)CC(N)C(=O)NC1CCN(C(=O)Cn2ccc3ccncc32)CC1 (stereo unspecified)', '1 (yes)'),
  ('CCOc1cc(CNCC2CCNCC2)ccc1OCc1ccc(Cl)cc1', '0 (no)');

A record lists "Cc1cc(-c2ccc(CNCC3CCNCC3)o2)ccc1Br" . Is its ΔTm below 0.6 °C?
0 (no)

* * *

System: Quadruplex DNA
TEST SUMMARY: Binding affinity to 5'-Dabcyl/3'-FM labeled c-Kit G-quadruplex DNA (unknown origin) assessed as change in melting temperature at 20 uM by fluorescence assay
Format: nucleic-acid assay
Classify: True when ΔTm is strictly less than 2 °C; False when ΔTm is not.

INSERT INTO assay_data (compound, target, category_label) VALUES
  ('CC(C)CC(N)C(=O)NC1CCN(C(=O)Cn2ccc3ccncc32)CC1 (stereo unspecified)', 'Quadruplex DNA', 'True');

A record lists "Cc1cc(-c2ccc(CNCC3CCNCC3)o2)ccc1Br" . Is its ΔTm below 2 °C?
False

A record lists "Cc1ccc(COc2ccc(CNCC3CCNCC3)cc2)cc1" . Is its ΔTm below 2 °C?
False

* * *

Catalogue of ΔTm values
System: Quadruplex DNA
TEST SUMMARY: Binding affinity to 5'-Dabcyl/3'-FM labeled c-Kit G-quadruplex DNA (unknown origin) assessed as change in melting temperature at 20 uM by fluorescence assay
Format: nucleic-acid assay
Entry rule: numbers only, all in °C.

INSERT INTO measurements (molecule, target, property_measured, measured_number) VALUES
  ('CC(C)(N)C(=O)NC1CCN(C(=O)Cn2ccc3ccncc32)CC1', 'Quadruplex DNA', 'ΔTm', 0.1),
  ('CCOc1cc(CNCC2CCNCC2)ccc1OCc1ccc(Cl)cc1', 'Quadruplex DNA', 'ΔTm', 3.2);

Shifting focus to the molecule that follows.
GET /values?readout=ΔTm&item= CCn1cc(C(NC(=O)CCCN)c2ccc(F)cc2)c2ccncc21 (stereo not drawn)
1.1
